# target.entity: GluN2D-containing NMDA receptors (Homo sapiens)
# Sequence (O15399 28-1336, other chains not shown): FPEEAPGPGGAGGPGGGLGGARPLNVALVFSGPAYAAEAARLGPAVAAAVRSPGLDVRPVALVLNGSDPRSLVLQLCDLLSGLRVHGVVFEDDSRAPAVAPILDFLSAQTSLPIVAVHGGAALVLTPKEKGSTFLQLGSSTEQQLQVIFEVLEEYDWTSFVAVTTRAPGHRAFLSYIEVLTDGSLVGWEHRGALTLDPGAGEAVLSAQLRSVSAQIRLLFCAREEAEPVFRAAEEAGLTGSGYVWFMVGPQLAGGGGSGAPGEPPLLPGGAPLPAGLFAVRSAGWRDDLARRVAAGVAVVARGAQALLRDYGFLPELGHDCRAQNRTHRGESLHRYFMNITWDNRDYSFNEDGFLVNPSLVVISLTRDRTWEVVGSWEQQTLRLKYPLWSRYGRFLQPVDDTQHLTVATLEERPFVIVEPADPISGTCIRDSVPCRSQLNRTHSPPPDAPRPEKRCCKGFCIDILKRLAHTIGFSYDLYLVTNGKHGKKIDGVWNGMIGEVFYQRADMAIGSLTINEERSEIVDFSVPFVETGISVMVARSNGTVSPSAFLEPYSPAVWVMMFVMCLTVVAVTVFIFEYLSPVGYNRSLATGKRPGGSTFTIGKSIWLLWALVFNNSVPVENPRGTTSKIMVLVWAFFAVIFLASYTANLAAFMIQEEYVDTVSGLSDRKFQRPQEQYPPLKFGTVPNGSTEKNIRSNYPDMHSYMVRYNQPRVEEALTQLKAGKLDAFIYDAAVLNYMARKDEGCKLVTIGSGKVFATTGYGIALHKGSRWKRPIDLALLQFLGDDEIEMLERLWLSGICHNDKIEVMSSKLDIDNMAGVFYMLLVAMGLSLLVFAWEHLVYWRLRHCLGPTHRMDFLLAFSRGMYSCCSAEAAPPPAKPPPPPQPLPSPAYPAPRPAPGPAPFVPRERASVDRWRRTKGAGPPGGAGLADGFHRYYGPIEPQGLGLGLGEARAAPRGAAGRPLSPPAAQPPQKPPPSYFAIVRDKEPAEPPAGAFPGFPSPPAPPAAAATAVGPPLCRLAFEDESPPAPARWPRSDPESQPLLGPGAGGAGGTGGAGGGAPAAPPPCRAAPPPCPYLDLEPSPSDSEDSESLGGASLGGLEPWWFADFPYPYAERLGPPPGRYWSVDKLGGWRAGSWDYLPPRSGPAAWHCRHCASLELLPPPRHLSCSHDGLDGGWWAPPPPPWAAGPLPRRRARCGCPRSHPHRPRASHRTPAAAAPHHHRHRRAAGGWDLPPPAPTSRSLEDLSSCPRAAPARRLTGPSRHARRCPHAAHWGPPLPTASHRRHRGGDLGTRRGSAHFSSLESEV
# method.description: Two-electrode voltage-clamp recordings from Xenopus laevis oocytes, GluN2D
# Type: cell-based
# test.context: 10 μM test compound with glutamate 100 μM and glycine 30 μM; percent of response without compound; Tables 1-5
parameter: I10 μM/ICONTROL (mean ± SEM, %) Glu N2D
Just the number please, in %, no unit attached.

Would you please look over these solved cases?
// field: I10 μM/ICONTROL (mean ± SEM, %) Glu N2D; key: Cc1sc2ncn(CC(=O)N3CCCC3)c(=O)c2c1-c1cc(F)cc(F)c1 ; value = 116

Entry Cc1sc2ncn(CC(=O)N3CCCC3)c(=O)c2c1-c1cccc(-n2cncn2)c1 — recorded I10 μM/ICONTROL (mean ± SEM, %) Glu N2D = 108

The compound listed as Cc1sc2ncn(CC(=O)N3CCCC3)c(=O)c2c1-c1cccc(C#N)c1 shows I10 μM/ICONTROL (mean ± SEM, %) Glu N2D equal to 177

Lab note: measured I10 μM/ICONTROL (mean ± SEM, %) Glu N2D of Cc1sc2ncn(CC(=O)NCC(=O)O)c(=O)c2c1-c1ccc(Cl)cc1 was 93

I10 μM/ICONTROL (mean ± SEM, %) Glu N2D recorded for this compound, Cc1sc2ncn(CC(=O)N3CCCC3)c(=O)c2c1-c1cccc(I)c1 , is 364

Further cases:
Value of measured I10 μM/ICONTROL (mean ± SEM, %) Glu N2D for the entry Cc1sc2ncn(CC(=O)c3cccs3)c(=O)c2c1-c1cccc(I)c1 : 177

The compound Cc1sc2ncn(CC(=O)N3CCCC3)c(=O)c2c1-c1cc(C(F)(F)F)cc(C(F)(F)F)c1 showed I10 μM/ICONTROL (mean ± SEM, %) Glu N2D equal to 103

The compound listed as Cc1sc2ncn(CC(=O)N3CCCCC3)c(=O)c2c1-c1cc(Br)cc(Br)c1 shows I10 μM/ICONTROL (mean ± SEM, %) Glu N2D equal to 179

----------
# target.entity: GluN2B-containing NMDA receptors (Homo sapiens)
# Sequence (Q13224 27-1484, other chains not shown): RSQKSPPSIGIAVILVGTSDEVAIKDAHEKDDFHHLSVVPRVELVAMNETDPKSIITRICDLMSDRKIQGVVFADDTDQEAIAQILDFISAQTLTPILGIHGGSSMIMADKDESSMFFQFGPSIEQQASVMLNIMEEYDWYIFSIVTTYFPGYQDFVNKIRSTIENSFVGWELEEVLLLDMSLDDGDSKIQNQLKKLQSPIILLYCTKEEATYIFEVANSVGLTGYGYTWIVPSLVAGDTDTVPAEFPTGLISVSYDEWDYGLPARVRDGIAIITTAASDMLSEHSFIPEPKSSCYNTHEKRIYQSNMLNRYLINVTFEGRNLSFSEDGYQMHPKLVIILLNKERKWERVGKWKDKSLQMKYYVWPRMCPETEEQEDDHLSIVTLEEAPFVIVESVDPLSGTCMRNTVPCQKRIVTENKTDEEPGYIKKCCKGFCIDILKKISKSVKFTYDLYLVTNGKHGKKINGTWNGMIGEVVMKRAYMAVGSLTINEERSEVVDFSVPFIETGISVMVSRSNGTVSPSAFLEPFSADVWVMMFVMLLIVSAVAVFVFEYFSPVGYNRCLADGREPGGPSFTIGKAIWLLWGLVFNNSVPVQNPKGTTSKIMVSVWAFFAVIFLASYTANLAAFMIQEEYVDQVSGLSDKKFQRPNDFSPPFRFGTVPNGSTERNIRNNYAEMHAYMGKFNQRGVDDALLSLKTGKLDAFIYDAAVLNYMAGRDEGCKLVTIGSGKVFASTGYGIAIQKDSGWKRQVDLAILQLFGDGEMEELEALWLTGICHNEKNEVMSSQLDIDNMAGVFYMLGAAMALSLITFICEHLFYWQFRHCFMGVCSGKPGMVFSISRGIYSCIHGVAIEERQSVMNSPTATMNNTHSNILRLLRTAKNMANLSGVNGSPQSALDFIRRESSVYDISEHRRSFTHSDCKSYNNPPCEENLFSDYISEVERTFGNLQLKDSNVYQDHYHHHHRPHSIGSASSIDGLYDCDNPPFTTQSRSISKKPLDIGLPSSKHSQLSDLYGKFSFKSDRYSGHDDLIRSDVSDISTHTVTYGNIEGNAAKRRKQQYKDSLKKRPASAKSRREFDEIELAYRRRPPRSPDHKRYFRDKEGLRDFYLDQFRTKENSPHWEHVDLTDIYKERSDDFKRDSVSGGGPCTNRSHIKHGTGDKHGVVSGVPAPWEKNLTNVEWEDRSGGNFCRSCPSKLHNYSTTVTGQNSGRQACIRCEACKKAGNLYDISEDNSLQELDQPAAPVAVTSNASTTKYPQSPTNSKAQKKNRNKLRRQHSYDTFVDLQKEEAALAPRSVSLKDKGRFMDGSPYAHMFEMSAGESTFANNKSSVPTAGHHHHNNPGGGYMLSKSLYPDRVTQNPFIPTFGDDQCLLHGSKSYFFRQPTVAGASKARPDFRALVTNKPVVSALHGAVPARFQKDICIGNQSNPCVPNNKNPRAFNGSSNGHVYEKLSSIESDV
# method.description: Two-electrode voltage-clamp recordings from Xenopus laevis oocytes, GluN2B
# test.context: Table 1; glutamate 100 μM, glycine 30 μM; Hill fit; read-out: EC50 Glu N2B
# Description: Xenopus laevis oocytes were injected with cRNA encoding the NMDA receptor subunits. Two to seven days after injection, two-electrode voltage-clamp recordings were performed. Extracellular solutions were made from a solutions containing (in mM) 90 NaCl, 3 KCl, 10 HEPES, 0.5 BaCl2, 0.01 EDTA (pH 7.4 with NaOH). […] Potency was determined by adding increasing concentrations of test compound to saturating concentrations of glutamate (100 μM) and glycine (30 μM), and the response amplitude measured. […]
Entries and their measured pEC50 follow.
Answer as the number alone; pEC50 is minus log10 of concentration in mol/L.

Consider Cc1sc2ncn(CC(=O)N3CCCC3)c(=O)c2c1-c1cccc(-n2ccnc2)c1 [3-N-imidazolyl-Ph / Me] . Its measured pEC50 is 3.99

Next:
The reported value for Cc1sc2ncn(CC(=O)N3CCCC3)c(=O)c2c1-c1cccc(C(F)(F)F)c1 [3-CF3—Ph / Me] in terms of pEC50 is 5.22

pEC50 measured on Cc1sc2ncn(CC(=O)N3CCCC3)c(=O)c2c1-c1cc(F)cc(F)c1 [3,5-F—Ph / Me] = 4.02

Entry Cc1sc2ncn(CC(=O)N3CCCC3)c(=O)c2c1-c1ccc(N=[N+]=[N-])cc1 [4-N3—Ph / Me] , pEC50 reported as 4.27
